experiment: Plasma pharmacokinetics after single IV bolus or oral dose; type: in vivo, mice; conditions: mouse, plasma; IV, 2 mg/kg, male Balb/c mice; read-out: CL

{"Chem smiles": "CN1CCN(c2cc(C(=O)Nc3cc4cc(-c5cnn(C)c5)ccc4cn3)ccn2)CC1", "clearance / mL/min/kg": 14.6}

###

tested on: haematopoietic & lymphoid tumors (13 cell lines); assay: CellTiter-Glo Viability Assay, haematopoietic & lymphoid tumors; assay type: cell-based; conditions: Homo sapiens; TOLEDO cell line; inhibition of cancer cell proliferation; read-out: Haematopoietic & Lymphoid tumors, EC50 (μM) TOLEDO
In this section we review reported EC50 values for a set of compounds.

{"Chem smiles": "CN(C)Cc1cncc(-c2cnc3[nH]nc(-c4nc5c(-c6cc(F)cc(N7CCOCC7)c6)cncc5[nH]4)c3c2)c1", "System under test": "haematopoietic & lymphoid tumors (13 cell lines)", "EC50": "0.17 µM"}
{"Chem smiles": "CC(C)CC(=O)Nc1cncc(-c2ccc3[nH]nc(-c4cc5c(N6CCCCC6)cncc5[nH]4)c3c2)c1", "System under test": "haematopoietic & lymphoid tumors (13 cell lines)", "EC50": "0.441 µM"}
{"Chem smiles": "CN1CCCn2cc(nn2)-c2nccc3[nH]c(nc23)-c2n[nH]c3ccc(cc23)-c2cncc(c2)C1", "System under test": "haematopoietic & lymphoid tumors (13 cell lines)", "EC50": "1.85 µM"}
{"Chem smiles": "CN1CCN(c2cc(C(=O)Nc3cc4cc(-c5cnn(C)c5)c(F)cc4cn3)ccn2)CC1", "System under test": "haematopoietic & lymphoid tumors (13 cell lines)", "EC50": "0.132 µM"}
{"Chem smiles": "CN1CCC2(CC1)CN(c1cc(C(=O)Nc3cc4cc(-c5cnn(C)c5)ccc4cn3)ccn1)C2", "System under test": "haematopoietic & lymphoid tumors (13 cell lines)", "EC50": "0.073 µM"}
{"Chem smiles": "CN1CCN(c2cc(C(=O)Nc3cc4cc(-c5cn(C)nn5)ccc4cn3)ccn2)CC1", "System under test": "haematopoietic & lymphoid tumors (13 cell lines)", "EC50": "0.104 µM"}
{"Chem smiles": "CC(C)Nc1cncc(-c2ccc3cnc(NC(=O)c4cn(C5CCN(CCF)CC5)nn4)cc3c2)n1", "System under test": "haematopoietic & lymphoid tumors (13 cell lines)", "EC50": "0.122 µM"}

###

tested on: liver cancer (3 cell lines); experiment: CellTiter-Glo Viability Assay, liver cancer; type: cell-based; conditions: Homo sapiens; PLC/PRF/5 cell line; inhibition of cancer cell proliferation; read-out: Liver cancer, EC50 PLC/PRF/5
Quantity name: log10 of EC50 (log10 of the value in nM)

{"Chem smiles": "CN1CCN(c2cc(Nc3ncc4c(-c5ccc6ncccc6c5)c[nH]c4n3)ccn2)CC1", "Numeric result": 3.53}
{"Chem smiles": "Cc1n[nH]c2ccc(-c3cncc(N[C@H]4CC[C@@H](N)CC4)n3)cc12", "Numeric result": 3.17}
{"Chem smiles": "CN1CCC(Oc2ccc(NC(=O)c3n[nH]cc3/C=C/c3cccnc3)cn2)CC1", "Numeric result": 4.00}
{"Chem smiles": "Cc1ncc(C(=O)Nc2cc3nc(-c4cnc(C)n4C)ccc3cn2)s1", "Numeric result": 2.79}
{"Chem smiles": "O=C(Nc1cncc(-c2ccc3[nH]nc(-c4cc5cnccc5[nH]4)c3c2)c1)C1CCCCC1", "Numeric result": 3.26}
{"Chem smiles": "CN1CCC(Oc2ccc(C(=O)Nc3cc4cc(-c5cnn(C)c5)ccc4cn3)cc2)CC1", "Numeric result": 3.10}
{"Chem smiles": "Cn1ncc(-c2ccc3cnc(NC(=O)c4cccc(CN5CCCC5)c4)cc3c2)c1CN1CCCCC1", "Numeric result": 3.11}
{"Chem smiles": "CN1CCC(Oc2ccc(NC(=O)c3n[nH]c4cc(F)c(-c5cnn(C)c5)cc34)cc2)CC1", "Numeric result": 3.50}
{"Chem smiles": "O=C(Nc1c[nH]nc1-c1nc2c(-c3cccc(F)c3)cncc2[nH]1)c1cccnc1", "Numeric result": 2.65}
{"Chem smiles": "CN(C)C1CN(c2cc(C(=O)Nc3cc4cc(-c5cnn(C)c5)ccc4cn3)ccn2)C1", "Numeric result": 3.17}

###

In this section we review reported log10 EC50 values for a set of compounds.
test system: haematopoietic & lymphoid tumors (13 cell lines); assay: CellTiter-Glo Viability Assay, haematopoietic & lymphoid tumors; format: cell-based; details: Homo sapiens; MOLT-4 cell line; inhibition of cancer cell proliferation; read-out: Haematopoietic & Lymphoid tumors, EC50 (μM) MOLT-4
Quantity name: log10 EC50 (log10 of the value in µM)

{"Compound": "CS(=O)(=O)NCc1cc(F)cc(-c2nccc3[nH]c(-c4n[nH]c5ccc(-c6cncc(NC(=O)C7CCC7)c6)cc45)cc23)c1 [Compound 53]", "Quantity name": "log10 EC50", "Numeric result": 0.31}
{"Compound": "CN1CCN(c2cc(C(=O)Nc3cc4cc(-c5cnn(C)c5N)ccc4cn3)ccn2)CC1 [Compound 75]", "Quantity name": "log10 EC50", "Numeric result": -0.79}
{"Compound": "CC(C)CC(=O)Nc1cncc(-c2ccc3[nH]nc(-c4cc5c(N6CCCCC6)cncc5[nH]4)c3c2)c1 [Compound 50]", "Quantity name": "log10 EC50", "Numeric result": 0.11}
{"Compound": "CN(C)C1CCN(c2cc(C(=O)Nc3ncc4ccc(-c5cn(C)nn5)cc4n3)ccn2)CC1 [Compound 80]", "Quantity name": "log10 EC50", "Numeric result": 0.56}
{"Compound": "Cn1cc(-c2ccc3cnc(NC(=O)c4ccc5c(c4)CNCC5)cc3c2)cn1 [Compound 74]", "Quantity name": "log10 EC50", "Numeric result": -0.33}
{"Compound": "CN1CCN(c2cc(Nc3ncc4c(-c5ccc6ncccc6c5)c[nH]c4n3)ccn2)CC1 [Compound 67]", "Quantity name": "log10 EC50", "Numeric result": -0.42}
{"Compound": "Cc1n[nH]c2cc(F)c(-c3cncc(CN4CCNCC4)c3)cc12 [Compound 63]", "Quantity name": "log10 EC50", "Numeric result": 0.85}

###

tested on: haematopoietic & lymphoid tumors (13 cell lines); experiment: CellTiter-Glo Viability Assay, haematopoietic & lymphoid tumors; type: cell-based; details: Homo sapiens; MOLT-4 cell line; inhibition of cancer cell proliferation; read-out: Haematopoietic & Lymphoid tumors, EC50 (μM) MOLT-4

{"Chem smiles": "CN1CCC(Sc2ccc3cnc(NC(=O)c4ccnc(SC5CCN(C)CC5)c4)cc3c2)CC1", "Measure unit": "µM", "EC50": 1.45}
{"Chem smiles": "c1cc2cc(c1)-c1cncc3[nH]c(nc13)-c1n[nH]c3ccc(cc13)-c1cncc(c1)CNC2", "Measure unit": "µM", "EC50": 0.254}
{"Chem smiles": "CN(C)Cc1cncc(-c2ccc3[nH]nc(-c4cc5c(-c6ccoc6)ccnc5[nH]4)c3c2)c1", "Measure unit": "µM", "EC50": 7.26}
{"Chem smiles": "Cc1n[nH]c2ccc(-c3cncc(N[C@H]4CC[C@H](O)CC4)n3)cc12", "Measure unit": "µM", "EC50": 0.715}
{"Chem smiles": "CC(C)Nc1cncc(-c2ccc3cnc(NC(=O)c4cn(C5CCN(CCF)CC5)nn4)cc3c2)n1", "Measure unit": "µM", "EC50": 0.13}
{"Chem smiles": "c1cncc(-c2ccc3[nH]nc(-c4cc5c(-c6cccnc6)cncc5[nH]4)c3c2)c1", "Measure unit": "µM", "EC50": 2.52}

###

molecular target: CLK2 (Homo sapiens); construct: purchased Thermo Fisher (Life Technologies), Z'-LYTE Kinase Assay Kits; test: CLK2 kinase activity assay (Z-lyte, Ser/Thr 6 peptide); type: biochemical
Sequence (P49760 whole entry): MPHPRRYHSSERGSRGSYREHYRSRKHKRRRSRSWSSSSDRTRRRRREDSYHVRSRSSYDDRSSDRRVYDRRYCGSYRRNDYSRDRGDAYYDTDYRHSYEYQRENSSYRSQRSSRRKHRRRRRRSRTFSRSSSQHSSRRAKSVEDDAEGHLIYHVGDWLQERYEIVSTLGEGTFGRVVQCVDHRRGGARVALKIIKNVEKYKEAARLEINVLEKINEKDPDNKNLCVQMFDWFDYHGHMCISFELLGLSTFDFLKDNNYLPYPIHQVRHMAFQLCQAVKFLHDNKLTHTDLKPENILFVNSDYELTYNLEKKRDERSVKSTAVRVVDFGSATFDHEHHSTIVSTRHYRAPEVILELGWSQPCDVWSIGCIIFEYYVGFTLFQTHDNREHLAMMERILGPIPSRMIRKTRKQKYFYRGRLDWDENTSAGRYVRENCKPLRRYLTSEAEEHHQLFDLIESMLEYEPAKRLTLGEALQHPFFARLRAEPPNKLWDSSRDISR
In this section we review reported EC50 values for a set of molecules.

{"Chem smiles": "O=C(Nc1cc2cc(-c3cnn4c3CN(CCF)CC4)ccc2cn1)c1ccnc(OC2CNC2)c1", "EC50 (nM)": 4.4}
{"Chem smiles": "Cc1ccc([N+](=O)[O-])cc1S(=O)(=O)N(C)/N=C/c1cnc2ccc(Br)cn12", "EC50 (nM)": 1}
{"Chem smiles": "CN1CCC(N(C)c2cc(C(=O)Nc3cc4cc(-c5cnn(C)c5)ccc4cn3)ccn2)CC1", "EC50 (nM)": 1.3}

###

System: haematopoietic & lymphoid tumors (13 cell lines)
Experiment: CellTiter-Glo Viability Assay, haematopoietic & lymphoid tumors
Assay type: cell-based
Details: Homo sapiens; MOLT-4 cell line; inhibition of cancer cell proliferation; read-out: Haematopoietic & Lymphoid tumors, EC50 (μM) MOLT-4
Protocol: Fifty-one human cancer cell lines (breast cancer (8 cell lines), colorectal cancer (6 cell lines), haematopoietic & lymphoid tumors (13 cell lines), liver cancer (3 cell lines), lung cancer (4 cell lines), ovarian cancer (4 cell lines), pancreatic cancer (8 cell lines), and prostate cancer (5 cell lines)) were tested to determine the effects of representative compounds of Formulas (I)-(XII) on cellular proliferation, as evaluated using the CellTiter-Glo® Viability Assay. […]
Quantity name: EC50 (µM)

{"Chem smiles": "CN1CCC(Oc2ccc(NC(=O)c3n[nH]cc3/C=C/c3cccnc3)cn2)CC1", "Quantity name": "EC50", "Numeric result": 5.56}
{"Chem smiles": "CN1CCC(Oc2ccc(NC(=O)c3n[nH]c4cc(F)c(-c5cnn(C)c5)cc34)cc2)CC1", "Quantity name": "EC50", "Numeric result": 0.999}
{"Chem smiles": "Cc1n[nH]c2ccc(-c3cncc(N[C@H]4CC[C@@H](N)CC4)n3)cc12", "Quantity name": "EC50", "Numeric result": 0.383}
{"Chem smiles": "CN1CCCCN(C)c2nccc3[nH]c(nc23)-c2n[nH]c3ccc(cc23)-c2cncc(c2)C1", "Quantity name": "EC50", "Numeric result": 0.314}
{"Chem smiles": "O=C(Nc1ccc(OCCN2CCCC2)cc1)c1n[nH]cc1/C=C/c1cccnc1", "Quantity name": "EC50", "Numeric result": 6.76}
{"Chem smiles": "COc1ccc(NC(=O)c2n[nH]c3ccc(-c4cncc(CN5CCCCC5)c4)cc23)cn1", "Quantity name": "EC50", "Numeric result": 0.689}
{"Chem smiles": "O=C(Nc1c[nH]nc1-c1nc2c(-c3cccc(F)c3)cncc2[nH]1)c1cccnc1", "Quantity name": "EC50", "Numeric result": 0.045}
{"Chem smiles": "CN1CCN(c2cc(C(=O)Nc3cc4cc(-c5cnn(C)c5)c(F)cc4cn3)ccn2)CC1", "Quantity name": "EC50", "Numeric result": 0.343}
{"Chem smiles": "CN(C)Cc1cncc(-c2cnc3[nH]nc(-c4nc5c(-c6cc(F)cc(N7CCOCC7)c6)cncc5[nH]4)c3c2)c1", "Quantity name": "EC50", "Numeric result": 2.96}
{"Chem smiles": "CN(C)C1CN(c2cc(C(=O)Nc3cc4cc(-c5cnn(C)c5)ccc4cn3)ccn2)C1", "Quantity name": "EC50", "Numeric result": 0.643}
{"Chem smiles": "CN1CCC(C(=O)Nc2c[nH]nc2-c2nc3c(-c4ccc(F)s4)cccc3[nH]2)CC1", "Quantity name": "EC50", "Numeric result": 0.125}
{"Chem smiles": "Cc1ncc(-c2ccc3cnc(NC(=O)c4cnn(C5CCN(C)CC5)c4)cc3c2)o1", "Quantity name": "EC50", "Numeric result": 0.196}
{"Chem smiles": "CN1CCC2(CC1)CN(c1cc(C(=O)Nc3cc4cc(-c5cnn(C)c5CO)ccc4cn3)ccn1)C2", "Quantity name": "EC50", "Numeric result": 0.734}
{"Chem smiles": "[2H]c1c([2H])c([2H])c(/C=C/C(=O)Nc2cc3cc(-c4cncn4C)ccc3cn2)c([2H])c1[2H]", "Quantity name": "EC50", "Numeric result": 0.186}
{"Chem smiles": "CN1CCN(c2cc(C(=O)Nc3cc4cc(-c5nnc(N(C)C)s5)ccc4cn3)ccn2)CC1", "Quantity name": "EC50", "Numeric result": 0.965}
{"Chem smiles": "CN1CCC2(CC1)CN(c1cc(C(=O)Nc3cc4cc(-c5cnn(C)c5)ccc4cn3)ccn1)C2", "Quantity name": "EC50", "Numeric result": 0.2}
